Molecular target: Lyn kinase (human) (Homo sapiens)
Construct: purchased Upstate Biotechnology, Lake Placid, N.Y
Sequence (P07948 whole entry): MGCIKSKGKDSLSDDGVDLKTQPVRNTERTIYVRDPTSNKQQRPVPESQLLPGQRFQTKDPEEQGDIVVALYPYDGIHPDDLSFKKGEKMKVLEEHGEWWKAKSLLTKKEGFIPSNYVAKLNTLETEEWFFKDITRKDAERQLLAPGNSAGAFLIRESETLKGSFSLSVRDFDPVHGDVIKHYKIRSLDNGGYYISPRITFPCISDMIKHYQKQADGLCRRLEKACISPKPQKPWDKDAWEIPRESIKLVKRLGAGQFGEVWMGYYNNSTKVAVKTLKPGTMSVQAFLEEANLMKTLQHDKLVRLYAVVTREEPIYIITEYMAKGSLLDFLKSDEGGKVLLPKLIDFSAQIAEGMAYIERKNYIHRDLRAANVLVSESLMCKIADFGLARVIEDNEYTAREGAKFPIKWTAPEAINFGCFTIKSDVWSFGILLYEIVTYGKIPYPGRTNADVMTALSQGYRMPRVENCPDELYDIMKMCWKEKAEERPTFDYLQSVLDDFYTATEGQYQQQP
Assay: Lyn Kinase Assay (h)
Assay type: biochemical
Conditions: (h) human Lyn, 5 μM ATP
Protocol: A mixture of a 10× kinase buffer (500 mM MOPS at pH 7.5, 1 mM EGTA, 1 mM Sodium Vanadate, 1% β-mercaptoethanol and 100 mM Magnesium Acetate), ATP (5 μM final from a 10 mM stock), polyGluTyr (0.1 mg/mL final from a 1 mg/mL stock), γ-^33P ATP (10 μCi/μL stock) and water (20 μL/well) was added to each well of a Streptavidin Flashplate. Test compound in 100% DMSO (0.5 μL) was added to the appropriate wells. […]
endpoint-name: pIC50
// pIC50 is dimensionless: -log10 of concentration (M)

## Input Please look at this compound and report its pIC50: `CN(C)Cc1ccc(Nc2nc3ncc(C#N)c(Nc4cccc5c4OC(F)(F)O5)c3s2)cc1`
## Output 6.65

---

Target: HER-2 (Homo sapiens)
Construct: the nucleotides encoding amino acids 679 to 1255 of HER-2; HIS6 with thrombin site (N)
Sequence (P04626 679-1255): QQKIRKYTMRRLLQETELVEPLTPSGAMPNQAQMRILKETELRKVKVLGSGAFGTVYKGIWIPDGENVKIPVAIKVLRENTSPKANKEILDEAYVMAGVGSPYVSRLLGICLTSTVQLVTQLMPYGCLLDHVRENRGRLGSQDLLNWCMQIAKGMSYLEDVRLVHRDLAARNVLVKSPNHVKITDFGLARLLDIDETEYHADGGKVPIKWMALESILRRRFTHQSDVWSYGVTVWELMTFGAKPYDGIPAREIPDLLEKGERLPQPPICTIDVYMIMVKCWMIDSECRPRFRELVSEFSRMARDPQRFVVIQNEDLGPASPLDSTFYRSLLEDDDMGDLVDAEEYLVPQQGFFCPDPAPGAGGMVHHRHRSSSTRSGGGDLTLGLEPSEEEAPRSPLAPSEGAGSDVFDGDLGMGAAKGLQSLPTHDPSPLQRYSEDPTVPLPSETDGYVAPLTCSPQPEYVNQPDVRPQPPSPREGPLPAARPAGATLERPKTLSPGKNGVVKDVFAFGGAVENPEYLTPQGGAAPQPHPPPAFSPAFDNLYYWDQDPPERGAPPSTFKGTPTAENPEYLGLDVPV
Assay: HER-2 Kinase Assay
Conditions: GST-HER2 kinase, 1 μM ATP
Method: The HER-2 kinase used was purified at Proqinase (Freiburg, Germany) from a construct that consisted of a fusion of GST (Glutathione-S-Transferase), HIS6-Thrombin and the nucleotides encoding amino acids 679 to 1255 of HER-2. […] The reaction plates were incubated at 30° C. for 1 hr. […] The plates were then sealed and read on the TopCount scintillation counter. […]
endpoint-name: IC50 (µM)
Express your answer in µM, writing the number without its unit.

## Input Please look at this compound and report its IC50: `CN(C)Cc1ccc(Nc2nc3ncc(C#N)c(Nc4cccc5c4OC(F)(F)O5)c3s2)cc1`
## Output 92.7

## Input Please look at this compound and report its IC50: `N#Cc1cnc2nc(Nc3ccc(CN4CCCC4)cc3)sc2c1Nc1ccc(F)c(Cl)c1`
## Output 46

## Input Please look at this compound and report its IC50: `C#Cc1cccc(Nc2c(C#N)cnc3nc(Nc4ccc(CN(C)C)cc4)sc23)c1`
## Output 10

## Input Please look at this compound and report its IC50: `N#Cc1cnc2nc(Nc3ccc(CN4CCCC4)cc3)sc2c1Nc1ccc(OCc2cccc(F)c2)c(Cl)c1`
## Output 2.06

---

Biological target: EGFR (Homo sapiens, UniProt P00533)
Construct: started at nucleotide 2189 (corresponding to amino acid 667) and ended at the termination codon
Sequence (P00533 667-1210 limits assumed): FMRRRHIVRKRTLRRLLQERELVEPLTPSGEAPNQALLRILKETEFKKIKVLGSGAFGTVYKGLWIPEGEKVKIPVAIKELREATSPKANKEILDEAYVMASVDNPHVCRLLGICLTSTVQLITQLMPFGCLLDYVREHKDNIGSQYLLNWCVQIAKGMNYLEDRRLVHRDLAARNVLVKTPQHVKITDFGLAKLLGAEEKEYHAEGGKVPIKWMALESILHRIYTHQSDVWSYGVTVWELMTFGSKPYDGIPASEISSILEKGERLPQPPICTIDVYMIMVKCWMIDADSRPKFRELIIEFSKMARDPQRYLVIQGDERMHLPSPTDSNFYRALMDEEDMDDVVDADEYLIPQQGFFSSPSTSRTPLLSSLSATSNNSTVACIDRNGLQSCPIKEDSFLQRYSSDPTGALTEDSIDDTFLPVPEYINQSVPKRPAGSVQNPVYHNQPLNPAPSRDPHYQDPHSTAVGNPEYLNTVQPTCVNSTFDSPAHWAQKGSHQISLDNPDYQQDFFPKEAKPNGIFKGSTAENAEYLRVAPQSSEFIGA
Experiment: EGFR Kinase Assay (GST-EGFR, 33P-ATP, Streptavidin Flashplate)
Conditions: GST-EGFR intracellular portion, 5 μM ATP
Experimental: The EGFR kinase used was a fusion of Glutathione-S-Transferase (GST) and a PCR amplified intracellular portion of EGFR (NM_005228). […] The plates were incubated at 30° C. for 1 hr with shaking. […] The plates were then sealed and read on the TopCount scintillation counter. Test compounds were assayed in triplicate at 16 concentrations at half-log dilutions starting at 200 uM. A maximum and minimum signal for the assay was determined on each plate. […]
endpoint-name: IC50 (µM)
Express your answer in µM, writing the number without its unit.

## Input Please look at this compound and report its IC50: `CN(Cc1ccc(Nc2nc3ncc(C#N)c(Nc4ccc(F)c(Cl)c4)c3s2)cc1)C[C@@H]1CCCO1`
## Output 0.0761

## Input Please look at this compound and report its IC50: `N#Cc1cnc2nc(Nc3ccc(CN4CCCC4)cc3)sc2c1Nc1ccc(OCc2cccc(F)c2)c(Cl)c1`
## Output 0.0333

## Input Please look at this compound and report its IC50: CN1CCCC(COc2ccc(Nc3nc4ncc(C#N)c(Oc5cccc(OC(F)(F)F)c5)c4s3)cc2)C1 (centres unmarked)
## Output 7.21

## Input Please look at this compound and report its IC50: `C#Cc1cccc(Nc2c(C#N)cnc3nc(NCCCN4CCOCC4)sc23)c1`
## Output 2.63

## Input Please look at this compound and report its IC50: `N#Cc1cnc2nc(Nc3ccc(O)nc3)sc2c1Nc1ccc(F)c(Cl)c1`
## Output 0.207

## Input Please look at this compound and report its IC50: `CN(Cc1ccc(Nc2nc3ncc(C#N)c(Nc4ccc(F)c(Cl)c4)c3s2)cc1)C1CCOCC1`
## Output 0.0764

## Input Please look at this compound and report its IC50: `N#Cc1cnc2nc(NCCN3CCOCC3)sc2c1Nc1cccc(Cl)c1`
## Output 15.8

## Input Please look at this compound and report its IC50: `C#Cc1cccc(Nc2c(C#N)cnc3nc(Nc4ccc(CN(C)C)cc4)sc23)c1`
## Output 0.0565
